Test: NCI Yeast Anticancer Drug Screen. Data for the rad50 strain (AID 155);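 note: 0% = growth of vehicle-only cultures of the same strain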
Conditions: S. cerevisiae rad50 strain growth inhibition; at 5.0 µM (retest, dose inferred, filed as 0.5)
The panel holds about 79,000 compounds, 15% with a hit somewhere; the sample as a whole holds those more often. Active and inactive are the calls of the source. Cut-off read from the data, not from the text of the source: active = growth inhibition above about 70%; inactive = the rest.
Output constraint: value belongs to active, inactive

Solved entries (count: 3):
O=[N+]([O-])c1cccc(F)c1O = inactive
CCCCCCCCCC1OCC(C)O1 (stereo not given) = inactive
c1ccc2c3ccn4ccc5c6ccccc6[nH]c5c4c-3nc2c1 = inactive

Here's the next entry for you.
// outcome(item) with item = `Cc1cc(N=[N+]=[N-])c2cc(C3CCCCC3)ccc2n1`
inactive

----------
Assay: NCI Yeast Anticancer Drug Screen. Data for the mec2-1 strain (AID 157)
Settings: S. cerevisiae mec2-1 strain, at 5.0 µM (retest, dose inferred, filed as 0.5), hits give high values
Compounds without any hit were thinned out: in the full panel of roughly 79,000, 15% have a hit.
property measured: growth inhibition (%)
// return numeric value only (unit: %, not printed)

Worked cases, answers included:
O=C1C(C(O)(C(F)(F)Cl)C(F)(F)Cl)CCCC1C(O)(C(F)(F)Cl)C(F)(F)Cl (configuration not stated) = 97
O=C(O)C(Cc1cc(I)c(O)c(I)c1)C1CCCCC1 (configuration not stated) = 8
C1=C(CC2=C[P+](c3ccccc3)(c3ccccc3)C=C(c3ccccc3)O2)OC(c2ccccc2)=C[P+]1(c1ccccc1)c1ccccc1 = 8
CCCCN(CCCC)CC(O)c1ccc2cc(Cl)c3ccccc3c2c1 (configuration not stated) = 40
CCN(CC)CCCNc1cccc2ccc(OC)nc12 = 0

Now consider a different compound.
For the compound shown here, `O=c1c(-c2ccccc2)c(-c2ccccc2)c1=O` , give the reported growth inhibition.
-37

----------
Test: NCI Yeast Anticancer Drug Screen. Data for the cln2 rad14 strain (AID 165);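 note: 0% = growth equal to vehicle treated cultures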
Conditions: S. cerevisiae cln2 rad14 strain, at 50.0 µM (retest, dose inferred, filed as 5.0)
The panel holds about 79,000 compounds, 15% with a hit somewhere; the sample as a whole holds those more often. Activity calls are given as the source filed them. No stated cut-off is given here; in the data, active means growth inhibition above about 70%; inactive means the rest.
Just give me one of these, please: True = active, False = inactive

COc1ccc(C(CC(=O)c2ccccc2)Sc2ccccc2N)cc1 (stereo not drawn) = False
CC(C)COP(=O)(OCC(C)C)C(NS(=O)(=O)c1ccccc1)(C(F)(F)F)C(F)(F)F = False
NC(Cc1ccc(O)cc1O)C(=O)O (stereo not drawn) = False

Called result for `CCN(CC)CCCCSc1ccc([N+](=O)[O-])cc1[N+](=O)[O-]`
False

Which result was noted for this compound in the test: `Nc1ccc(C(=O)/C=C/c2ccccn2)cc1`
False

# fetch the recorded call for Cc1ccc(NC(=O)CC2SC(N)=NC2=O)cc1C (stereo not drawn) here
False

For this compound, state the assay outcome: CC1CCCC(CCN(C)CCC2CCCCC2)CC1 (stereo not drawn)
True

Entry `O=NN(CCCl)C(=O)Oc1ccc(OC(=O)N(CCCl)N=O)cc1` : call = ?
True

Returns: the outcome recorded for `N#CN=[N+]([O-])c1ccc(C(=O)O)cc1` in this assay.
True

Recorded test call requested for `CN(C)C(=S)/N=c1\ss/c(=N\C(=S)N(C)C)n1Cc1ccco1`
False

Any idea what this test logged for `O=S(=O)(SCc1ccccc1)C(c1ccccc1)c1ccccc1` ?
False

What is the recorded call for this compound in the test? `O=C(/C(Cl)=N/O)c1ccccc1`
True

Field: outcome | Entry: `CC(C)n1nnc2ccccc2c1=Nc1ccccc1`
False

GET /call?item= `c1ccc(SSc2ccccc2)cc1` returns the recorded outcome of this test.
False

Hey, what did the test say about N#CC(C(=O)C(=O)NC1C2CC3CC(C2)CC1C3)c1c(Cl)cccc1Cl (stereo not drawn) ?
False

I'd appreciate the recorded outcome for COC(=O)N/N=C(/CC1(O)C(=O)Nc2ccccc21)c1ccc(Cl)cc1Cl (stereo not drawn) from this test.
True

Hello, I am checking results. What call was entered for CN/N=C(\C)C(CN1CCCCC1)C(C1=C(O)c2ccccc2OC1)c1ccccc1 (stereo not drawn) ?
False

For this compound, state the assay outcome: `[Pt].c1ccc([PH+](CC[PH+](CC[PH+](c2ccccc2)c2ccccc2)CC[PH+](c2ccccc2)c2ccccc2)c2ccccc2)cc1`
True

What did this assay record as the result for CC(=O)OC12CCC3C4CC=C5CC(O)CCC5(C)C4C(=O)C3C1(C)N1CC(C)CC(O)C1C2C (stereo not drawn) ?
False

Outcome logged for `CCCCOC(=O)c1ccc(S(=O)(=O)c2ccc(C(=O)OCCCC)cc2)cc1` in this assay:
False

Query: recorded result category for `Cc1c(CCCl)c(N=[N+]=[N-])n2c(nc3ccccc32)c1C#N` in this test
False

Query: recorded result category for CCCCCCC(C)OC(=O)c1ccccc1C(=O)O (stereo not drawn) in this test
False

// outcome(item) with item = `COc1cccc(/C=C(\NC(=O)c2ccccc2)c2nc3ccccc3s2)c1`
True

----------
Experiment: NCI Yeast Anticancer Drug Screen. Data for the bub3 strain (AID 167)
Settings: S. cerevisiae bub3 mutant strain, at 5.0 µM (retest, dose inferred, filed as 0.5), hits give high values
This is part of a sample that, as a whole, favours compounds with a hit. Of some 79,000 tested, about 15% had one in any assay. Where a SMILES comes first, the peptide text is derived from it. Bridges are numbered along the chain shown (N, C = ends). [ ]: non-standard residue; d: D form. The star is where a group is joined. NMeV = CN[CH](C(=O)O)C(C)C; Cbz = O=C(OCc1ccccc1)*; Sar = CNCC(=O)O
Tag: 1.0 if measured growth inhibition is not below 20%, 0.0 if it is.

growth inhibition >= 20% for `O=C(C[n+]1cccc2ccccc21)c1ccc(-c2ccc(C(=O)C[n+]3cccc4ccccc43)cc2)cc1` ?
0.0

I'd appreciate it if you could say whether `CC(=O)SC(SC(C)=O)SC(C)=O` has growth inhibition at least equal to 20%.
1.0

Does the reported growth inhibition for `Cc1cc(-c2ccc(O)c(C)c2)ccc1O` fall at or above the 20% mark?
1.0

Please tell me: is the compound `CCCCCCCCCCCC(=O)c1c(O)c2ccccc2oc1=O` at or over 20% in terms of growth inhibition?
0.0

Form field: growth inhibition at least 20%? Entry: COc1cccc2c1C(=O)c1c(O)c3c(c(O)c1C2=O)C[C@@](O)(C(=O)CO)C[C@@H]3OC1CC(N)CC(C)O1 (stereo partly specified)
1.0

Does O=C(NC(Cc1ccc(O)cc1)C(=O)NC(Cc1ccccc1)C(=O)O)OCc1ccccc1 (stereo not drawn) (Cbz-Tyr-Phe-OH; configuration not given here) have a reported growth inhibition of at least 20%?
0.0

Is reported growth inhibition greater than or equal to 20% here: `Cc1ccc2sc3ccc(N)cc3c(=O)c2c1`
1.0

Given the entry `c1ccc(COc2ccc(C[P+](c3ccccc3)(c3ccccc3)c3ccccc3)cc2)cc1` , answer whether its growth inhibition meets or surpasses 20%.
1.0

Check if growth inhibition >= 20% (inclusive). Item: `Oc1ccc(O)c2c(O)c3ccccc3c(O)c12`
0.0

Answer whether growth inhibition of `Cc1c(-c2ccccc2)ccnc1/C=N/NC(=S)Nc1ccc(N(C)C)cc1` is greater than or equal to 20%.
1.0

Can CCC(C1SC(=S)NC1=O)C1SC(=S)NC1=O (stereo unspecified) be said to have growth inhibition at or above 20%?
0.0

Is it the case that CC(C)C1NC(=O)C(N)C(C)OC(=O)C(C(C)C)N(C)C(=O)CN(C)C(=O)C2CCCN2C1=O (stereo unspecified) (tested in a mixture with another compound) (H-TVP[Sar][NMeV]; ester 1-C; configuration not given here) has growth inhibition reaching or exceeding 20%?
0.0

State whether the measured growth inhibition reaches 20%, counting equality as reaching it, for `COC(=O)c1cc(=O)n(-c2ccccc2C(F)(F)F)c(SC)n1`
0.0

Does growth inhibition meet or surpass 20% for c1ccc(CC(Nc2cccnc2)c2ccccc2)cc1 (stereo unspecified) ?
1.0

Could you please find out whether `CC(C)COC(=O)c1ccc(N=Cc2ccc(C=Nc3ccc(C(=O)OCC(C)C)cc3)cc2)cc1` has growth inhibition that meets 20% or exceeds it?
0.0

Item `C/C(=N\NC(=S)NC12CC3CC(CC(C3)C1)C2)c1ccccn1` with growth inhibition of 20% or above?
0.0

Textbook exercise: given the entry `C=CC1(c2ccc(-c3ccccc3)cc2)OCCO1` , state whether its growth inhibition is greater than or equal to 20%.
0.0

Entry `Cc1ccc2ccc3c(CCN(C)C)cc4c(c3c2c1O)OCO4` : is its growth inhibition no less than 20%?
0.0

I'd appreciate it if you could say whether `O=C(/C(=C/c1ccc(Cl)cc1)c1ccccc1)c1ccc(O)cc1` has growth inhibition at least equal to 20%.
1.0

Decide: growth inhibition of `O=C(O)c1ccccc1-c1ccccc1C(=O)Nc1ccc2c(c1)Cc1cc(F)ccc1-2` >= 20%?
0.0

Check this compound for growth inhibition at or above 20%: CN1C=COC1N=C1CCCCC1 (stereo unspecified)
0.0
